Numbers sourced from PubChem BioAssay (NCATS).

Recorded Potency values for a group of molecules are listed next.
- Tested on: UISO
- ASSAY EXPLANATION: qHTS assay to identify novel small-molecules to repurpose for Merkel cell carcinoma treatment (AID 1296009); note: potency is the fitted concentration of half-maximal effect; nearly all actives have a fitted effect of over 60% in size
- CONDITION SUMMARY: MCC and control cell lines, CellTiter-Glo viability, 72 h; series mostly up to 46 µM
Records with an inconclusive call do not appear. Active and inactive are the calls of the source. Calls come from the whole dose curve; as a rule, active = well fitted inhibition curve with a large enough effect; inconclusive = small, poorly fitted or top-dose-only effect; inactive = flat fitted curve, though single readings scatter.

Q: Look up Potency for this molecule: `CNC(=O)c1nn(C)c2c1C(C)(C)Cc1cnc(Nc3ccc(N4CCN(C)CC4)cc3)nc1-2`
A: 235 nM (active)

Q: Also Nc1ncnc2c1c(-c1cccc(OCc3ccccc3)c1)cn2C1CC(CN2CCCC2)C1 (centres undefined) , if possible.
A: 10500 nM (active)

Now, please, on to the next molecule.
Q: Look up Potency for this molecule: `CC1=C(CO)C(=O)O[C@@H]([C@@H](C)[C@H]2CC[C@H]3[C@@H]4C[C@H]5O[C@]56[C@@H](O)C=CC(=O)[C@]6(C)[C@@H]4CC[C@]23C)C1`
A: 743 nM (active)

---

- ASSAY EXPLANATION: Quantitative High-Throughput drug screen in 47 multiple myeloma cell lines against the NCATS MIPE library collection: OPM1_PLB cell viability assay (AID 1918989); note: nearly all actives have a fitted effect of over 40% in size
- CONDITION SUMMARY: CellTiter-Glo, 48 h; series mostly up to 45.8 µM
Inconclusive results are not listed. Activity calls are given as the source filed them. Calls come from the whole dose curve; as a rule, active = well fitted cell-killing curve with a large enough effect; inconclusive = small, poorly fitted or top-dose-only effect, or effect the other way; inactive = no such curve, though single readings can be large or run the other way.
Hi there, use one of these labels in your reply, thanks! true (active), false (inactive)

Past entries and their recorded results:
Q: Look up the recorded call for `C=CC(=O)Nc1cc2c(Nc3ccc(F)c(Cl)c3)ncnc2cc1C#CC(C)(C)N1CCN(C)CC1` in this test.
A: true

Q: Also COc1ccc(-c2cc3c(C)nc(N)nc3n(C3CCC(OCCO)CC3)c2=O)cn1 (stereo not given) , if possible.
A: true

Q: Also `CC[C@@]1(O)C(=O)OCc2c1cc1n(c2=O)Cc2cc3cc(O)ccc3nc2-1` , if possible.
A: true

Q: Also `CC[C@H](CO)Nc1nc(NCc2ccccc2)c2ncn(C(C)C)c2n1` , if possible.
A: true

Q: Also Cn1c2cc(S(C)=O)sc2c2cnn(Cc3cccc(N)c3)c(=O)c21 (stereo not given) , if possible.
A: false

Q: Also `Nc1nccc(Oc2ccc(NC(=O)c3c[nH]cc(-c4ccc(F)cc4)c3=O)cc2F)c1Cl` , if possible.
A: true

---
Q: Look up the recorded call for CC(O)C1C(=O)N2C(C(=O)O)=C(SC3CNC(C(=O)N(C)C)C3)C(C)C12 (stereo not given) in this test.
A: false

Q: Also `CCC[C@H](NC(=O)C(C#N)=Cc1cccc(Br)n1)c1ccccc1` , if possible.
A: true

Q: Also `NC(=O)Nc1cc(-c2cccc(F)c2)sc1C(=O)N[C@H]1CCCNC1` , if possible.
A: true

Q: Also COc1ccc(C(=O)CC2(O)C(=O)Nc3c(Cl)ccc(Cl)c32)cc1 (stereo not given) , if possible.
A: true

---

- ASSAY EXPLANATION: Quantitative High-Throughput drug screen in 47 multiple myeloma cell lines against the NCATS MIPE library collection: OCIMY5_PLB cell viability assay (AID 1918988); note: potency is the fitted concentration of half-maximal effect; nearly all actives have a fitted effect of over 65% in size
- CONDITION SUMMARY: OCI-MY5 myeloma viability, ATP luminescence, 48 h; series mostly up to 45.8 µM
Records with an inconclusive call do not appear. Calls of active or inactive are those of the source. The call rests on the fitted dose curve; in most records, active means well fitted cell-killing curve with a large enough effect; inconclusive means small, poorly fitted or top-dose-only effect, or effect the other way; inactive means no such curve, though single readings can be large or run the other way.
Recorded Potency values for a group of molecules are listed next.

Below are worked cases with known answers.
Q: Look up Potency for this molecule: `Cc1c(NC(=O)OC[C@@H]2COCCN2)cn2ncnc(Nc3ccc4c(cnn4Cc4cccc(F)c4)c3)c12`
A: 16.6 nM (active)

Q: Also `CC(=O)OCC(=O)[C@@]1(O)[C@H](C)C[C@H]2[C@@H]3C=C(C)C4=Cc5c(cnn5-c5ccccc5)C[C@]4(C)[C@@H]3[C@@H](O)C[C@@]21C` , if possible.
A: 7430 nM (active)

Q: Also `COc1cc2c(cc1-c1c(C)noc1C)ncc1[nH]c(=O)n([C@H](C)c3ccccn3)c12` , if possible.
A: 1050 nM (active)

Q: Also `Nc1ncnc2c1c(-c1cnc3[nH]ccc3c1)nn2C1CCCC1` , if possible.
A: 3320 nM (active)

Q: Also `CN1CC[C@@H](c2c(O)cc(O)c3c(=O)cc(-c4ccccc4Cl)oc23)[C@@H](O)C1` , if possible.
A: 66.2 nM (active)

Q: Also CC(NCc1ccc2c(c1)nc(NC(=O)c1ccc(-c3cn[nH]c3)s1)n2CC(C)(C)O)C(C)(C)C (centres undefined) , if possible.
A: 235 nM (active)

---
Q: Look up Potency for this molecule: `COCCOc1ccc2c(c1)ncn2-c1ccc2cccc(N3CCC(N)CC3)c2n1`
A: 235 nM (active)

Q: Also `Cc1coc2c1C(=O)C(=O)c1c-2ccc2c1CCCC2(C)C` , if possible.
A: 14800 nM (active)

Q: Also Nc1ncnc2c1c(-c1cccc(OCc3ccccc3)c1)cn2C1CC(CN2CCCC2)C1 (centres undefined) , if possible.
A: 7430 nM (active)

---

- ASSAY EXPLANATION: Quantitative High-Throughput drug screen in 47 multiple myeloma cell lines against the NCATS MIPE library collection: U266_ATCC cell viability assay (AID 1919864); note: potency is the fitted concentration of half-maximal effect; nearly all actives have a fitted effect of over 35% in size
- CONDITION SUMMARY: U266 myeloma viability, CellTiter-Glo ATP luminescence, 48 h; series mostly up to 45.8 µM
Results filed as inconclusive are left out. Activity calls are given as the source filed them. The call rests on the fitted dose curve; in most records, active means well fitted cell-killing curve with a large enough effect; inconclusive means small, poorly fitted or top-dose-only effect, or effect the other way; inactive means no such curve, though single readings can be large or run the other way.
QUANTITY MEASURED: Potency

Below are worked cases with known answers.
Q: Look up Potency for this molecule: `COc1cc2c(Nc3ccc(NC(=O)c4ccccc4)cc3)ncnc2cc1OCCCN1CCOCC1`
A: 23.5 µM (active)

Q: Also `COc1ccc(OC)c(-c2nnc3ccc(-c4ccc(OC)c(O[C@@H]5CCOC5)c4)nn23)c1` , if possible.
A: 7.43 µM (active)

Q: Also `COc1cc2ncn(-c3cc(OCc4ccccc4C(F)(F)F)c(C(N)=O)s3)c2cc1OC` , if possible.
A: 18.7 µM (active)

Q: Also `CC(C)(C)c1cnc(CSc2cnc(NC(=O)C3CCNCC3)s2)o1` , if possible.
A: 0.118 µM (active)

Q: Also `Cc1cc(Nc2ncnc3ccc(-c4ccc(CNCCS(C)(=O)=O)o4)cc23)ccc1Oc1ccn2ncnc2c1` , if possible.
A: 18.7 µM (active)

Q: Also `CN(C)Cc1c(C(=O)NCCOc2ccc(C(=O)NO)cc2)oc2ccccc12` , if possible.
A: 1.18 µM (active)

---
Q: Look up Potency for this molecule: `Cc1[nH]c2ccccc2c1CCNCc1ccc(C=CC(=O)NO)cc1`
A: 0.132 µM (active)

Q: Also Nc1ncnc2c1c(-c1cccc(OCc3ccccc3)c1)cn2C1CC(CN2CCCC2)C1 (centres undefined) , if possible.
A: 16.6 µM (active)

Q: Also `CCc1c2c(nc3ccc(O)cc13)-c1cc3c(c(=O)n1C2)COC(=O)[C@]3(O)CC` , if possible.
A: 0.743 µM (active)

---

- Tested on: CP215
- ASSAY EXPLANATION: qHTS profiling for inhibitors of Plasmodium falciparum proliferation (AID 504749); note: nearly all actives have a fitted effect of over 60% in size
- CONDITION SUMMARY: P. falciparum in erythrocytes, SYBR Green DNA, 72 h; series mostly up to 28.7 µM
Results filed as inconclusive are left out. Activity calls are given as the source filed them. The call rests on the fitted dose curve; in most records, active means well fitted inhibition curve with a large enough effect; inconclusive means small, poorly fitted or top-dose-only effect; inactive means flat fitted curve, though single readings scatter.
Hi there, use one of these labels in your reply, thanks! 1.0 for active, 0.0 for inactive

Past entries and their recorded results:
Q: Look up the recorded call for `CC(C)(C)NC(=O)[C@H]1CN(Cc2cccnc2)CCN1C[C@@H](O)C[C@@H](Cc1ccccc1)C(=O)N[C@H]1c2ccccc2C[C@H]1O` in this test.
A: 1.0

Q: Also `CC[C@H]1CN2CCc3cc(OC)c(OC)cc3[C@H]2C[C@@H]1C[C@@H]1NCCc2cc(OC)c(OC)cc21` , if possible.
A: 1.0

---
Q: Look up the recorded call for `COc1c(N2C[C@@H]3CCCN[C@H]3C2)c(F)cc2c(=O)c(C(=O)O)cn(C3CC3)c12` in this test.
A: 0.0

Q: Also `O=C(O)CO.[NH2-].[NH2-].[Pt+2]` , if possible.
A: 0.0

Q: Also CN1c2cc(O)c(N=NC(N)=O)cc2CC1S(=O)(=O)O (stereo not given) , if possible.
A: 0.0

---

- ASSAY EXPLANATION: Quantitative High-Throughput drug screen in 47 multiple myeloma cell lines against the NCATS MIPE library collection: KHM11_PLB cell viability assay (AID 1918962); note: nearly all actives have a fitted effect of over 35% in size
- CONDITION SUMMARY: KHM11 myeloma cell viability, CellTiter-Glo ATP luminescence, 48 h; series mostly up to 45.8 µM
Inconclusive results are not listed. The source made the active and inactive calls. Calls come from the whole dose curve; as a rule, active = well fitted cell-killing curve with a large enough effect; inconclusive = small, poorly fitted or top-dose-only effect, or effect the other way; inactive = no such curve, though single readings can be large or run the other way.
Hi there, use one of these labels in your reply, thanks! Y (active), N (inactive)

Past entries and their recorded results:
Q: Look up the recorded call for `COc1cc2c(cc1-c1c(C)noc1C)ncc1[nH]c(=O)n([C@H](C)c3ccccn3)c12` in this test.
A: Y

Q: Also `COc1cc2c(Nc3ccc(NC(=O)c4ccccc4)cc3)ncnc2cc1OCCCN1CCOCC1` , if possible.
A: Y

Q: Also `CC(C)CC(=O)Nc1n[nH]c2c1CN(C(=O)C1CCN(C)CC1)C2(C)C` , if possible.
A: Y

Q: Also O=c1[nH]c(=O)n(C2CCCO2)cc1F (centres undefined) , if possible.
A: N

---
Q: Look up the recorded call for `N#CCNC(=O)c1ccc(-c2ccnc(Nc3ccc(N4CCOCC4)cc3)n2)cc1` in this test.
A: Y

Q: Also `COc1cc2c(Oc3ccc(-c4cnc(Nc5ccc(F)cc5)n(C)c4=O)cc3F)ccnc2cc1OCCCN1CCOCC1` , if possible.
A: Y

Q: Also `CC(C)C[C@H](NC(=O)CNC(=O)c1cc(Cl)ccc1Cl)B(O)O` , if possible.
A: Y

Q: Also `OCCCNc1cc(-c2ccnc(Nc3cccc(Cl)c3)n2)ccn1` , if possible.
A: Y
